Data provenance is patent US20140073639A1.

system: B. Anthracis; experiment: microbe, parasite or virus in culture; type: cell-based; conditions: Bacillus anthracis, 30 μM; read-out: B. Anthracis 30 μM (growth inhibition)
quantity: inhibition at 30 µM (%)

>>> print(df.to_string())
                                   compound  readout_unit  recorded_value
0  O=C(O)C(Cc1ccccc1)N1C(=O)/C(=C\c2ccc(-c3ccc(Cl)cc3)o2)NC1=S (stereo not shown)             %            99.7
1  O=C(O)C(Cc1ccccc1)N1C(=O)/C(=C\c2ccc(-c3ccc(OC(F)(F)F)cc3)o2)NC1=S (stereo not shown)             %            96.6
2  O=C(O)C(Cc1ccccc1)N1C(=O)/C(=C\c2ccc(-c3ccc(Cl)c(Cl)c3)o2)NC1=S (stereo not shown)             %            96.7
3  N#CNC(=O)C(Cc1ccccc1)N1C(=O)/C(=C\c2ccc(-c3cccc(Cl)c3)o2)NC1=S (stereo not shown)             %            12.5
